- EXPERIMENTAL PROTOCOL: Rate of release of pheromone components from lures in laboratory wind tunnel
- Assay type: physicochemical
- CONDITION NOTES: Interval 11 days, Vial; major component = 100
RECORDED METRIC: Mean ratio (release rate to the major component)

MOLECULE: CCCCCCC(=O)CCC(C)OC(C)=O (racemic) [racemic 2-acetoxy-5-undecanone, 2-acetoxy-5-undecanone]
NUMERIC READOUT: 100

MOLECULE: CCCCCCCCCC(C)=O
NUMERIC READOUT: 48

MOLECULE: CCCCCCCCCC(C)O (racemic)
NUMERIC READOUT: 36

MOLECULE: CCCCCCCCCC(C)OC(C)=O (racemic) [2-undecyl acetate, 2-acetoxyundecane]
NUMERIC READOUT: 39

Each recorded value in this set is attributed to patent US8071117B2.
